Listed next: entries and their corresponding TGI.
System: UACC-257 melanoma
assay remarks: NCI tumour cell line growth inhibition, 48 h
Output spec: scalar in µM, unitless text.

smiles repr: CCOC(=O)c1cc(C)nc2c1c(=O)n(-c1ccccc1)c(=O)n2CCCCN1CCN(c2ccccc2)CC1
TGI / µM: 99.8

Note to self: TGI recorded for "NCCOCCOCCNc1nc(-c2ccc(Cl)cc2)nc(N2CCN(c3ccccn3)CC2)n1" was 3.55

====

TGI listing for selected molecules.
Tested on: IGROV1 ovarian
assay remarks: NCI tumour cell line growth inhibition, 48 h
Where a SMILES comes first, the peptide text is derived from it. [ ]: non-standard residue; d: D form. The star is where a group is joined. Bn2Val = CC(C)[C@@H](C(=O)*)N(Cc1ccccc1)Cc1ccccc1; NH(4-Cl-benzyl) = Clc1ccc(CN*)cc1; NMeV = CN[C@H](C(=O)O)C(C)C; dNMeA = CN[C@H](C)C(=O)O

molecule: COc1cc(C2c3cc4c(cc3C3OC[C@@H]2C3CO)OCO4)cc(OC)c1OC (stereo not given in full)
TGI: > 100 µM
--
molecule: CC1(C)CC(=O)C2(CC(CSc3ccccc3)C(CS(=O)(=O)c3ccccc3)C2)C(=O)C1 (stereo not given)
TGI: > 100 µM
--
molecule: CN(C)c1nc2ccccc2c2c1c1c(n2Cc2ccccc2)-c2ccccc2C1=O
TGI: > 100 µM
--
molecule: C=CC[n+]1c2ccccc2n2cc([N+](=O)[O-])ccc21
TGI: 51.5 µM
--
molecule: Cc1ccc(S(=O)(=O)Nn2c(O)c(C#N)c(-c3ccc(Cl)cc3)c(C#N)c2=O)cc1
TGI: > 100 µM
--
molecule: CC(C)=CCNc1nc(Cl)nc2nc[nH]c12
TGI: > 100 µM
--
molecule: c1ccc(-c2nc(N3CCOCC3)c3c4c(sc3n2)CCCCCC4)nc1
TGI: 9.95 µM
--
molecule: CN(Cc1cnc2nc(N)nc(N)c2n1)c1ccc(C(=O)NC(CO)CCCO)cc1 (stereo not given)
TGI: > 100 µM
--
molecule: Nc1nc(Cl)cc(NC23CC4CC(CC(C4)C2)C3)n1
TGI: > 100 µM
--
molecule: CC(C)(C)OC(=O)NCCCn1c2c(c3ccccc3c1=O)C(=O)c1ccccc1-2
TGI: > 100 µM

Reported TGI ( CN1CC2=C(NC(=S)NC2c2ccccc2)/C(=C/c2ccccc2)C1 (stereo not given) ) = > 100 µM

TGI measured on "c1ccc2c(c1)SCCCSCCSCCCS2" = > 100 µM

The molecule listed as CC(C)[C@H](NC(=O)[C@H](C(C)C)N(Cc1ccccc1)Cc1ccccc1)C(=O)N(C)[C@H](C(=O)N1CCC[C@H]1C(=O)N(C)[C@H](C)C(=O)NCc1ccc(Cl)cc1)C(C)C (Bn2Val-V[NMeV]P[dNMeA]-{NH(4-Cl-benzyl)}) has a reported TGI of 8.3 µM

Reported TGI for "O=C1CC(=O)n2cnc3cccc(c32)N1" was > 100 µM

TGI recorded for this molecule, NNC(=O)C1(NC(=O)c2ccccc2)C(c2ccccc2)C(c2ccccc2)=NN1c1ccccc1 (stereo not given) , is > 100 µM

"COc1ccc(CCn2c(=O)c3ccccc3n(C)c2=O)cc1" has a reported TGI of > 100 µM

For record "Cc1c2cc(Cl)c3ccccc3c2c[n+]2ccccc12" the listed TGI is 60.3 µM

The molecule "COc1ccc(Nc2ccc3ccccc3c2-c2c(O)ccc3ccccc23)cc1" showed TGI equal to 23 µM

Per the records, this molecule ( NNC(=O)C(=O)N/N=C1\CCC(=O)CC1C(=O)CCC(=O)Nc1ccc(Cl)cc1 (stereo not given) ) has TGI equal to > 100 µM

# molecule "COc1ccc(-c2nc(-c3nc4ccc(F)cc4[nH]3)c3ccccn23)cc1" ; its TGI = 47.2 µM
